studyTarget: aromatase (Rattus norvegicus)
Construct: ovarian microsomes are obtained from rats treated with pregnant mares serum gonadotropin; from tissue; host or cells: ovarian microsomes from rats treated with pregnant mares serum gonadotropin
procedureSummary: Aromatase inhibition in the rat ovarian microsome assay
Type: biochemical
Protocol: In this test system, ovarian microsomes are obtained from rats treated with pregnant mares serum gonadotropin. Test compounds are added to reaction vials containing 0.1 μM 4-androstene-3,17-dione, 100,000 dpm 1,2[^3 H]-androstenedione, the microsomes and a NADPH generating system. The concentrations of the inhibitors tested ranged between 0.005 and 10 μM.
reportedEndpoint: EC50
Form field: result (number plus unit)

{"columns": ["molecule", "studyTarget", "EC50"],
 "data": [
  ["N#CC(Cc1c[nH]cn1)(c1ccccc1)c1ccc(Cl)cc1 (centres unmarked)", "aromatase (Rattus norvegicus)", "72 nM"]
]}

Below: the item to evaluate.
For the molecule c1ccc(C(Cc2c[nH]cn2)c2ccccc2)cc1 [4(5)-(2,2-diphenylethyl)imidazole, 4(5)-(2,2-Diphenylethyl)imidazole] , what EC50 is on record?
94 nM

---

studyTarget: aromatase (Rattus norvegicus, UniProt P22443)
Construct: ovarian microsomes are obtained from rats treated with pregnant mares serum gonadotropin; from tissue; host or cells: ovarian microsomes from rats treated with pregnant mares serum gonadotropin
Sequence (P22443 whole entry): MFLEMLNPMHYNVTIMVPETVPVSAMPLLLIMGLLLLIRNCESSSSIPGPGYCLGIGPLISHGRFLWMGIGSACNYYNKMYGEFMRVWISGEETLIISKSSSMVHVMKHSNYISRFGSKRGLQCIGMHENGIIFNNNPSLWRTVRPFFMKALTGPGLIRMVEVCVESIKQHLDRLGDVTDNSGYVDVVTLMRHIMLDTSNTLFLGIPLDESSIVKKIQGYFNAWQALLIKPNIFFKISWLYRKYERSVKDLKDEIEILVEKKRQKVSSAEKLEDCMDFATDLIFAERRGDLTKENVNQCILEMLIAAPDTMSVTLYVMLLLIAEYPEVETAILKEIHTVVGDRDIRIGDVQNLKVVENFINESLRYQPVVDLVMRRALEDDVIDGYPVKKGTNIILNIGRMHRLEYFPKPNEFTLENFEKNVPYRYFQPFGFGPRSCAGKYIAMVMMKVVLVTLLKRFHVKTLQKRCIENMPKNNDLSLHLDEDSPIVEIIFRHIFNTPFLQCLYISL
procedureSummary: Aromatase inhibition in the rat ovarian microsome assay
Type: biochemical
conditionDetails: rat ovarian microsomes; substrate (androstenedione) 0.1 μM; read-out: EC50 (concentration required to achieve 50% inhibition of aromatase activity)
Where a name gives a salt, the structure may show the parent alone.
Rule: EC50 below 80 nM gives MET. Equal to or above 80 nM gives NOT MET.

{"columns": ["molecule", "label"],
 "data": [
  ["N#CC(Cc1c[nH]cn1)(c1ccccc1)c1cccnc1 (centres unmarked) [dihydrochloride]", "NOT MET"],
  ["NC(=O)C(Cc1c[nH]cn1)(c1ccc(Cl)cc1)c1ccc(Cl)cc1 [hydrochloride]", "MET"],
  ["N#CC(Cc1c[nH]cn1)(c1ccccc1)c1ccccc1", "NOT MET"],
  ["N#CC(Cc1c[nH]cn1)(c1ccccc1)c1ccc(C(F)(F)F)cc1 (centres unmarked)", "MET"],
  ["COc1ccc(C(C#N)(Cc2c[nH]cn2)c2ccccc2)cc1 (centres unmarked)", "NOT MET"]
]}

Confirm or reject: EC50 of NC(=O)C(Cc1c[nH]cn1)(c1ccccc1)c1ccccc1 [hydrochloride] lies strictly below 80 nM
NOT MET

Same lookup for N#CC(Cc1c[nH]cn1)(c1ccc(Cl)cc1)c1ccc(Cl)cc1 , please.
MET

Attribution: patent US4605661A
